A collection of binders and their measured percent inhibition of 125I-0405BP3 binding at 20 uM
Test Target: HLA-DR4 (DRA-DRB1*0406 complex) (human (endogenous in KT13))
Protocol Details: radioligand binding
Report the figure in % without appending any unit label.

Answered cases to consult:
## Input Identify measured percent inhibition of 125I-0405BP3 binding at 20 uM associated with VPIQRAVYQNVVVNN [0405BP1 (…), unlabeled]
## Output 70

## Input Identify measured percent inhibition of 125I-0405BP3 binding at 20 uM associated with GSTVFDNLPNPEIDGDYYGW [0405BP3 (…), unlabeled]
## Output 96

## Input Identify measured percent inhibition of 125I-0405BP3 binding at 20 uM associated with GPKPLFRRMSSLVGPTQSFF [CD20p26-45 (…)]
## Output 96

## Input Identify measured percent inhibition of 125I-0405BP3 binding at 20 uM associated with SDPILYRPVAVALDTKGPE [PKM2p99-117 (…), unlabeled]
## Output 71

## Input Identify measured percent inhibition of 125I-0405BP3 binding at 20 uM associated with EGQLVSIHSPEEQDFLTKHA [CD23p195-214 (…)]
## Output 63

## Input Identify measured percent inhibition of 125I-0405BP3 binding at 20 uM associated with NELSGEAHKDALGKLY [irrelevant peptide (…), unlabeled]
## Output 2

New cases:
## Input Identify measured percent inhibition of 125I-0405BP3 binding at 20 uM associated with SPGTGAYYVLLN [0405BP2 (…)]
## Output 85

src = paper PMC2191632
